// data source = ChEMBL document CHEMBL4689842

Let's look at some molecules and their measured Total Cell Count.
# Test system: HEK-293T
# measurement-description: Multiplex assay against HEK293T
# Type: toxicity, cell-based
# condition-set: human, 12 h, 10 µM, compound concentration 10 uM, replicate 2

{"columns": ["molecule", "target-entity", "Total Cell Count"],
 "data": [
  ["CC(=O)c1cc(-c2cc(C(=O)NC3CC3)ccc2C)c2ncccn12", "HEK-293T", 199],
  ["Nc1nc2c(c(N3CCNCC3)n1)CCC1=C2[C@@H]2CCCC[C@@H]2O1", "HEK-293T", 200],
  ["CNc1oc(-c2cccc3ccccc23)nc1C#N", "HEK-293T", 2861],
  ["Cc1nc(Cc2cccc(C(F)(F)F)c2)sc1-c1ccc(C(N)=O)nc1 [TP-024n]", "HEK-293T", 141],
  ["CN(C)C/C=C/C(=O)Nc1cc2c(Nc3ccc(F)c(Cl)c3)ncnc2cc1O[C@H]1CCOC1.O=C(O)/C=C\\C(=O)O.O=C(O)/C=C\\C(=O)O [AFATINIB DIMALEATE]", "HEK-293T", 999]
]}
